biological target: Mu-type opioid receptor (Homo sapiens); assay: Agonist activity at human MOR expressed in CHOK1 cells assessed as reduction in forskolin-induced intracellular cAMP increase after 45 mins by HTRF analysis
Sequence (P35372 whole entry): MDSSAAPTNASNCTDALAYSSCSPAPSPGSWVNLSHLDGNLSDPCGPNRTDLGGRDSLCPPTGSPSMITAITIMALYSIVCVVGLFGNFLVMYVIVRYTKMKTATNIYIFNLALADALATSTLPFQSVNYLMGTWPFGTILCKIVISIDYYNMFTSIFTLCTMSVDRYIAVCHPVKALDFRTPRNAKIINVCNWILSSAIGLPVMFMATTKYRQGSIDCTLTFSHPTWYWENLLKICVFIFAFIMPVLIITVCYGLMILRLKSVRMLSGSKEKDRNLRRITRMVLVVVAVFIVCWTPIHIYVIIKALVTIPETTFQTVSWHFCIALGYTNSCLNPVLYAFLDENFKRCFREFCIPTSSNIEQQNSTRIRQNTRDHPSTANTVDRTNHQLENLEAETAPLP
experimental endpoint: EC50

CCOC(=O)C[C@H]1Cc2ccccc2C2(CCC(N3CCN(C4CCCCC4)CC3)CC2)O1 (some centres not stated) ... > 10 µM

I'm curious: which EC50 was measured for O[C@H]1Cc2ccccc2C2(CCC(N3CCN(C4CCCCC4)CC3)CC2)O1 (some centres not stated) tested on Mu-type opioid receptor (Homo sapiens)?
> 10 µM

----------
biological target: Kappa-type opioid receptor (Cavia porcellus)
Sequence (P41144 whole entry): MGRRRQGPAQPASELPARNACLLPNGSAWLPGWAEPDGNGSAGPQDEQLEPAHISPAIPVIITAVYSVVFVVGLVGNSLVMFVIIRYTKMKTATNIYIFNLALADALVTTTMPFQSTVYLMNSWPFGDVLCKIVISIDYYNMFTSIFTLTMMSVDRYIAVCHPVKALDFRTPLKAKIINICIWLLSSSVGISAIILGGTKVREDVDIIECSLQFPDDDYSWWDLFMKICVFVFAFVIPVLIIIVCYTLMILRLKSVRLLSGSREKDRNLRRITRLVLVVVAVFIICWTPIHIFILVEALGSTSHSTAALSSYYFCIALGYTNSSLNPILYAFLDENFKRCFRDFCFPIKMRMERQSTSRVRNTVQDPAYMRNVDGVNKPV
pKi: −log10 of the molar value.
Recorded pKi by entry

FCC[C@@H]1Cc2ccccc2C2(CCC(N3CCN(C4CCCCC4)CC3)CC2)O1 (some centres not stated) ... < 6.00

# input for lookup
I have this compound here, CCOC(=O)C[C@H]1Cc2ccccc2C2(CCC(N3CCN(C4CCCCC4)CC3)CC2)O1 (some centres not stated) , and I need its recorded pKi.
< 6.00

----------
target: Sigma intracellular receptor 2 (Rattus norvegicus, UniProt Q5U3Y7); experiment: Displacement of [3H]-di-o-tolylguanidine from sigma2 receptor in rat liver membranes incubated for 120 mins by scintillation counting method
Sequence (Q5U3Y7 whole entry): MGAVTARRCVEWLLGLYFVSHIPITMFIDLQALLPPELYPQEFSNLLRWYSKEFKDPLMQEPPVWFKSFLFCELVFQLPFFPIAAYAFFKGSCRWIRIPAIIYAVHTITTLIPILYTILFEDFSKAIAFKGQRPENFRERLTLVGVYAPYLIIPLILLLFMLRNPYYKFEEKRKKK
experimental endpoint: Ki

Here are 10 molecules together with their reported answers.
OCC[C@H]1Cc2ccccc2C2(CCC(N3CCN(C4CCCCC4)CC3)CC2)O1 (some centres undefined) ... 0.505 µM
CO[C@H]1Cc2ccccc2C2(CCC(NCCCc3cn(-c4ccc(F)cc4)c4ccccc34)CC2)O1 (some centres undefined) ... > 1 µM
COc1cc2c(cc1OC)CN(C1CCC3(CC1)O[C@@H](CCF)Cc1ccccc13)CC2 (some centres undefined) ... 0.505 µM
COc1cc2c(cc1OC)CN(C1CCC3(CC1)O[C@H](CCF)Cc1ccccc13)CC2 (some centres undefined) ... > 1 µM
CO[C@@H]1Cc2ccccc2C2(CCC(NCCCc3cn(-c4ccc(F)cc4)c4ccccc34)CC2)O1 (some centres undefined) ... > 1 µM
CO[C@@H]1Cc2ccccc2C2(CCC(NCc3ccccc3)CC2)O1 (some centres undefined) ... > 1 µM
Cc1ccc(CNC2CCC3(CC2)O[C@@H](CCF)Cc2ccccc23)c(C)c1 (some centres undefined) ... > 1 µM
COc1cc2c(cc1OC)CN(C1CCC3(CC1)O[C@@H](O)Cc1ccccc13)CC2 (some centres undefined) ... > 1 µM
Cc1ccc(CNC2CCC3(CC2)O[C@H](CCF)Cc2ccccc23)c(C)c1 (some centres undefined) ... 0.302 µM
COc1cc2c(cc1OC)CN(C1CCC3(CC1)O[C@@H](CCO)Cc1ccccc13)CC2 (some centres undefined) ... > 1 µM

I am curious: what Ki value has been reported for CO[C@H]1Cc2ccccc2C2(CCC(NCc3ccccc3)CC2)O1 (some centres undefined) ?
> 1 µM

Then what about the molecule O[C@@H]1Cc2ccccc2C2(CCC(N3CCN(C4CCCCC4)CC3)CC2)O1 (some centres undefined) ?
0.302 µM

And the next one, CCOC(=O)C[C@@H]1Cc2ccccc2C2(CCC(N3CCc4cc(OC)c(OC)cc4C3)CC2)O1 (some centres undefined) ?
> 1 µM

Same read-out for COc1cc2c(cc1OC)CN(C1CCC3(CC1)O[C@H](CCO)Cc1ccccc13)CC2 (some centres undefined) ?
> 1 µM

----------
pKi reference
biological target: Delta-type opioid receptor (Rattus norvegicus, UniProt P33533); assay: Displacement of [3H]DPDPE from DOR in rat brain membranes incubated for 120 mins by scintillation counting method
Sequence (P33533 whole entry): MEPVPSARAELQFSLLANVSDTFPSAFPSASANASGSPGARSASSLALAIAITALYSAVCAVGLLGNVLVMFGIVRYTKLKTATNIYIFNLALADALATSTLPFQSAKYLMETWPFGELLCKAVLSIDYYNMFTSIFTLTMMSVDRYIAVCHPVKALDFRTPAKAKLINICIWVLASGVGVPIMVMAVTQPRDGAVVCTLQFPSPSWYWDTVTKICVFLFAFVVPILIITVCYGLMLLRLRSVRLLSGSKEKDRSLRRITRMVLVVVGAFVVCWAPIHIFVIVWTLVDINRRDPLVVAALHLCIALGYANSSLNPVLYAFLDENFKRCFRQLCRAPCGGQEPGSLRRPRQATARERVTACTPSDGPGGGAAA
pKi: −log10 of the molar value.

Here is how some molecules turned out for pKi.
CCOC(=O)C[C@H]1Cc2ccccc2C2(CCC(N3CCN(C4CCCCC4)CC3)CC2)O1 (stereo partly drawn) ... < 6.00
O[C@H]1Cc2ccccc2C2(CCC(N3CCN(C4CCCCC4)CC3)CC2)O1 (stereo partly drawn) ... < 6.00

Next:
What is its pKi for Delta-type opioid receptor (Rattus norvegicus, UniProt P33533)? Entry: FCC[C@@H]1Cc2ccccc2C2(CCC(N3CCN(C4CCCCC4)CC3)CC2)O1 (stereo partly drawn)
< 6.00

// data source = BindingDB's records for doi:10.1021/acs.jmedchem.8b01183
